- study_system: GLP-1R (Homo sapiens, UniProt P43220)
- Sequence (P43220 24-463): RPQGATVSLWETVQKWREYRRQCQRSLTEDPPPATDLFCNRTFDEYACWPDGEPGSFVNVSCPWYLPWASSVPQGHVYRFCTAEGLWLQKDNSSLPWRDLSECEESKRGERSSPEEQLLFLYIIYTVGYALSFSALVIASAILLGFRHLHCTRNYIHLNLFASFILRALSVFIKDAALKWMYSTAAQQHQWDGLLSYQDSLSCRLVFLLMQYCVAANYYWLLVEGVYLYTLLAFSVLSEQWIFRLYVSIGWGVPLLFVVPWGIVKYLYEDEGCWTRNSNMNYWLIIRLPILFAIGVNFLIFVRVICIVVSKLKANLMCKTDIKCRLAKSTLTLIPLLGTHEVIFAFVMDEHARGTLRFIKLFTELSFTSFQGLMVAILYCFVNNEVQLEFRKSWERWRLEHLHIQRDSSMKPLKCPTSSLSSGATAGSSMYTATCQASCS
- Sequence (P01275 100-127 partner limits assumed): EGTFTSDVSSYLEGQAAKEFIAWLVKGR
- experimental_details: EC20 GLP-1(9-36) PAM cAMP assay: dose response of compound in the presence of fixed concentration of GLP-1(9-36)
- cond: GLP-1R CRE-bla CHO-K1 cells, compound dose response in presence of fixed concentration of GLP-1(9-36)
EC50 listing for selected molecules.

Known EC50 results, listed for orientation:
{"smiles_input": "CCOc1ccc(C(=O)N[C@@H](Cc2ccc(-c3ncc(-c4ccc(C(C)(C)C)cc4)cn3)cc2)C(=O)O)cc1", "study_system": "GLP-1R (Homo sapiens, UniProt P43220)", "EC50": "0.8 to 2.5 µM"}
{"smiles_input": "CC(C)(C)c1ccc(C(=O)N[C@@H](Cc2ccc(-c3ncc(-c4ccc5c(c4)CCCN5)cn3)cc2)C(=O)O)cc1", "study_system": "GLP-1R (Homo sapiens, UniProt P43220)", "EC50": "5 to 10 µM"}
{"smiles_input": "CC(C)(C)c1ccc(C(=O)N[C@@H](Cc2ccc(N3CCN(c4ccc(-c5ccccc5)cc4)CC3)cc2)C(=O)O)cc1", "study_system": "GLP-1R (Homo sapiens, UniProt P43220)", "EC50": "5 to 10 µM"}

Alright, here's another molecule for you.
Lab note: "CC(C)(C)c1ccc(C(=O)N[C@@H](Cc2ccc(-c3noc(-c4ccc(N5CCCCC5)nc4)n3)cc2)C(=O)O)cc1" gave EC50 of 5 to 10 µM

* * *

- study_system: GLP-1R (Homo sapiens)
- experimental_details: EC20 GLP-1(9-36) PAM cAMP assay: dose response of compound in the presence of fixed concentration of GLP-1(9-36)
- cond: GLP-1R CRE-bla CHO-K1 cells, compound dose response in presence of fixed concentration of GLP-1(9-36)
pEC50: −log10 of the molar value.
pEC50 listing for selected compounds.

{"compound": "CC1CCN(c2ccc(-c3nc(-c4ccc(C[C@H](NC(=O)c5ccc(C(C)(C)C)cc5)C(=O)O)cc4)no3)cc2)CC1", "metric_name": "pEC50", "result": "5.00 to 5.30"}
{"compound": "Cc1cccc(-c2ccc(-c3cnc(-c4ccc(C[C@H](NC(=O)c5ccc(C(C)(C)C)s5)C(=O)O)cc4)nc3)cc2)c1", "metric_name": "pEC50", "result": "5.60 to 6.10"}

Lab note: "CCCCCCCOc1ccc(-c2cnc(-c3ccc(C[C@H](NC(=O)c4ccc(C(C)C)cc4)C(=O)N[C@@H](Cc4cnc[nH]4)C(=O)O)cc3)nc2)cc1" gave pEC50 of 5.60 to 6.10

Lab note: "CCCCCCCOc1ccc(-c2cnc(-c3ccc(C[C@H](NS(=O)(=O)c4ccc(OC)cc4)C(=O)O)cc3)nc2)cc1" gave pEC50 of 5.60 to 6.10

Lab note: CCCCCCCOc1ccc(-c2cnc(-c3ccc(C[C@H](NC(=O)c4cc5c(s4)CCC(C)C5)C(=O)O)cc3)nc2)cc1 (stereo partly shown) gave pEC50 of 5.60 to 6.10

Lab note: "CCCCCCCOc1ccc(-c2cnc(-c3ccc(C[C@H](NC(=O)c4ccc(C(C)(C)C)s4)C(=O)N[C@H](C)C(=O)O)cc3)nc2)cc1" gave pEC50 of > 6.10

* * *

pEC50 listing for selected molecules.
- study_system: GLP-1R (Homo sapiens, UniProt P43220)
- experimental_details: EC20 GLP-1(9-36) PAM cAMP assay: dose response of compound in the presence of fixed concentration of GLP-1(9-36)
- cond: GLP-1R CRE-bla CHO-K1 cells, compound dose response in presence of fixed concentration of GLP-1(9-36)
pEC50: −log10 of the molar value.

Known pEC50 results, listed for orientation:
{"molecule": "CC(C)(C)c1ccc(C(=O)N[C@@H](Cc2ccc(-c3ncc(-c4ccc(COc5ccccc5)cc4)cn3)cc2)C(=O)O)cc1 [Compound 231]", "pEC50": "5.00 to 5.30"}
{"molecule": "CCCCCCCOc1ccc(-c2cnc(-c3ccc(C[C@H](NC(=O)c4ccccc4C)C(=O)O)cc3)nc2)cc1 [Compound 119]", "pEC50": "> 6.10"}
{"molecule": "CCCCCCCOc1ccc(-n2cnc(-c3ccc(C[C@H](NC(=O)c4ccc(C(C)(C)C)cc4)C(=O)O)cc3)c2)cc1 [Compound 287]", "pEC50": "5.00 to 5.30"}

Lab note: CCCCCCCOc1ccc(-c2cnc(-c3ccc(C[C@H](NC(=O)c4ccc(C(C)(C)C)cc4)C(=O)N[C@@H](CC(N)=O)C(=O)O)cc3)nc2)cc1 [Compound 300] gave pEC50 of > 6.10

Lab note: CCCCCCCOc1ccc(-c2cnc(-c3ccc(C[C@H](NC(=O)c4cccc(C)c4)C(=O)O)cc3)nc2)cc1 [Compound 111] gave pEC50 of 5.60 to 6.10

* * *

- study_system: GLP-1R (Homo sapiens)
- experimental_details: EC20 GLP-1(9-36) PAM cAMP assay: dose response of compound in the presence of fixed concentration of GLP-1(9-36)
- cond: GLP-1R CRE-bla CHO-K1 cells, compound dose response in presence of fixed concentration of GLP-1(9-36)
pEC50: −log10 of the molar value.
metric_name: pEC50

Known pEC50 results, listed for orientation:
{"molecule": "CCCCCCCOc1ccc(-c2cnc(-c3ccc(C[C@H](NC(=O)c4ccn(C(C)C)n4)C(=O)O)cc3)nc2)cc1", "metric_name": "pEC50", "result": "5.60 to 6.10"}
{"molecule": "CCCCCCCOc1ccc(-c2cnc(-c3ccc(C[C@H](NC(=O)c4ncc(C(C)(C)C)s4)C(=O)NCC(=O)O)cc3)nc2)cc1", "metric_name": "pEC50", "result": "> 6.10"}
{"molecule": "CCCCCCCOc1ccc(-c2nc(-c3ccc(C(NC(=O)c4ccc(C(C)(C)C)cc4)C(=O)O)cc3)no2)cc1 (stereo not shown)", "metric_name": "pEC50", "result": "5.30 to 5.60"}

Lab note: "CC(C)(C)c1ccc(C(=O)N[C@@H](Cc2ccc(-c3ncc(-c4ccc(F)cc4)cn3)cc2)C(=O)O)cc1" gave pEC50 of 5.30 to 5.60

Lab note: "CCCCCCCOc1ccc(-c2cnc(-c3ccc(C[C@H](NC(=O)c4ccc(C(C)=O)cc4)C(=O)O)cc3)nc2)cc1" gave pEC50 of 5.60 to 6.10

Lab note: "CCCCCCCOc1ccc(-c2cnc(-c3ccc(C[C@H](NS(=O)(=O)c4ccc(Cl)cc4)C(=O)O)cc3)nc2)cc1" gave pEC50 of 5.60 to 6.10

Lab note: "CCCCCCCOc1ccc(-c2cnc(-c3ccc(C[C@H](NC(=O)c4ccc(CC)o4)C(=O)O)cc3)nc2)cc1" gave pEC50 of 5.60 to 6.10
